target: Calcitonin gene-related peptide type 1 receptor (Homo sapiens, UniProt O60894+Q16602); experiment: Displacement of [125I]CGRP from human recombinant CGRP receptor
Sequence (Q16602 whole entry, one chain of several): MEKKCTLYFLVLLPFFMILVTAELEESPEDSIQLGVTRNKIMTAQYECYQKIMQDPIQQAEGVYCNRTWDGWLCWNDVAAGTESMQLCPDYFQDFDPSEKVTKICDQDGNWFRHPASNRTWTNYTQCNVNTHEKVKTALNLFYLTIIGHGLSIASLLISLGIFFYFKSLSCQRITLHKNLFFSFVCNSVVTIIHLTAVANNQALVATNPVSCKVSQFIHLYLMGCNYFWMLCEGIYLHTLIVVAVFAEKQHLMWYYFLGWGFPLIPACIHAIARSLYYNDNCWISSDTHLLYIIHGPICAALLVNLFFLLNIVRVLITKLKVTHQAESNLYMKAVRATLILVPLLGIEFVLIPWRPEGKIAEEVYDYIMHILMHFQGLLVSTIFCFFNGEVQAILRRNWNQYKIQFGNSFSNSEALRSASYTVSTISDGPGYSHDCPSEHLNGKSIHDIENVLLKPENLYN
parameterMeasured: pKi
Keep in mind that pKi stands for -log10 of concentration in molar terms.

# molecule, pKi
measured = [
    ("CC(C)c1cn(C2CCN(C(=O)N[C@@H]3N=C(c4ccccc4)c4ccccc4N(CC(F)(F)F)C3=O)CC2)c(=O)[nH]1", 5.27),
    ("O=C(N[C@@H]1N=C(c2ccccc2)c2ccccc2N(CC(F)(F)F)C1=O)N1CCC(n2cc(-c3ccccc3)[nH]c2=O)CC1", 7.96),
]

We now examine a further molecule.
Let me check: O=C(N[C@@H]1N=C(c2ccccc2)c2ccccc2N(CC(F)(F)F)C1=O)N1CCC(n2cc(CO)[nH]c2=O)CC1 , system Calcitonin gene-related peptide type 1 receptor (Homo sapiens, UniProt O60894+Q16602), measured pKi is 4.70

###

# Lookup of reported pKi keyed by entry
target: Calcitonin gene-related peptide type 1 receptor (Homo sapiens, UniProt O60894+Q16602); assay: Displacement of [125I]CGRP from human recombinant CGRP receptor
Keep in mind that pKi stands for -log10 of concentration in molar terms.

Consider the following illustrative entries.
# compound, readoutNumber
rows = [
    ("COc1ccc(-c2cn(C3CCN(C(=O)N[C@@H]4N=C(c5ccccc5)c5ccccc5N(CC(F)(F)F)C4=O)CC3)c(=O)[nH]2)cc1", 6.69),
    ("O=C(N[C@@H]1N=C(c2ccccc2)c2ccccc2N(CC(F)(F)F)C1=O)N1CCC(N2Cc3ccccc3NC2=O)CC1", 7.32),
    ("O=C(N[C@@H]1N=C(c2ccccc2)c2ccccc2N(CC(F)(F)F)C1=O)N1CCC(n2c(=O)[nH]c3ncncc32)CC1", 7.29),
    ("O=C(N[C@@H]1N=C(c2ccccc2)c2ccccc2N(CC(F)(F)F)C1=O)N1CCC(n2c(O)nc3cccc(Cl)c32)CC1", 5.19),
    ("O=C(N[C@@H]1N=C(c2ccccc2)c2ccccc2N(CC(F)(F)F)C1=O)N1CCC(N2Cc3cnccc3NC2=O)CC1", 6.49),
    ("O=C(N[C@@H]1N=C(c2ccccc2)c2ccccc2N(CC(F)(F)F)C1=O)N1CCC(n2cc(-c3cccc(F)c3)nc2O)CC1", 7.96),
    ("O=C(N[C@@H]1N=C(c2ccccc2)c2ccccc2N(CC(F)(F)F)C1=O)N1CCC(N2CCNC2=O)CC1", 6.07),
    ("O=C(N[C@@H]1N=C(c2ccccc2)c2ccccc2N(CC(F)(F)F)C1=O)N1CCC(n2c(O)nc3c(Cl)cccc32)CC1", 6.84),
    ("O=C(N[C@@H]1N=C(c2ccccc2)c2ccccc2N(CC(F)(F)F)C1=O)N1CCC(n2c(=O)[nH]c3ccncc32)CC1", 6.07),
    ("O=C(N[C@@H]1N=C(c2ccccc2)c2ccccc2N(CC(F)(F)F)C1=O)N1CCC(N2Cc3ccncc3NC2=O)CC1", 6.46),
]

Note to self: pKi recorded for CS(=O)(=O)c1ccc2c(c1)[nH]c(=O)n2C1CCN(C(=O)N[C@@H]2N=C(c3ccccc3)c3ccccc3N(CC(F)(F)F)C2=O)CC1 was 6.59

Note to self: pKi recorded for O=C(N[C@@H]1N=C(c2ccccc2)c2ccccc2N(CC(F)(F)F)C1=O)N1CCC(N2CC(c3cccnc3)NC2=O)CC1 (some centres undefined) was 5.98

Note to self: pKi recorded for COc1cccc(-c2cn(C3CCN(C(=O)N[C@@H]4N=C(c5ccccc5)c5ccccc5N(CC(F)(F)F)C4=O)CC3)c(O)n2)c1 was 8.96

Note to self: pKi recorded for O=C(N[C@@H]1N=C(c2ccccc2)c2ccccc2N(CC(F)(F)F)C1=O)N1CCC(n2cc(-c3ccc(F)cc3)[nH]c2=O)CC1 was 7.96

###

target: Calcitonin gene-related peptide type 1 receptor (Homo sapiens, UniProt O60894+Q16602); assay: Activity at CGRP receptor assessed as inhibition of CGRP-stimulated cAMP production
# Lookup of reported IC50 keyed by entry
Value expressed in nM; do not type the unit.

Note to self: IC50 recorded for O=C(N[C@@H]1N=C(c2ccccc2)c2ccccc2N(CC(F)(F)F)C1=O)N1CCC(n2c(O)nc3c(F)cccc32)CC1 was 373

Note to self: IC50 recorded for CS(=O)(=O)c1ccc2c(c1)[nH]c(=O)n2C1CCN(C(=O)N[C@@H]2N=C(c3ccccc3)c3ccccc3N(CC(F)(F)F)C2=O)CC1 was 220

###

molecular target: Calcitonin gene-related peptide type 1 receptor (Homo sapiens, UniProt O60894+Q16602); experiment: Displacement of [125I]CGRP from human recombinant CGRP receptor
pKi: −log10 of the molar value.
pKi of 6 or higher: TRUE. Under 6: FALSE.

# structureString, assignedClass
records = [
    ("O=C(N[C@@H]1N=C(c2ccccc2)c2ccccc2N(CC(F)(F)F)C1=O)N1CCC(n2cc(-c3ccc(OC(F)(F)F)cc3)[nH]c2=O)CC1", "TRUE"),
    ("Cc1ccc2c(c1)[nH]c(=O)n2C1CCN(C(=O)N[C@@H]2N=C(c3ccccc3)c3ccccc3N(CC(F)(F)F)C2=O)CC1", "FALSE"),
    ("O=C(N[C@@H]1N=C(c2ccccc2)c2ccccc2N(CC(F)(F)F)C1=O)N1CCC(n2c(O)nc3cc(F)ccc32)CC1", "FALSE"),
    ("O=C(O)c1cn(C2CCN(C(=O)N[C@@H]3N=C(c4ccccc4)c4ccccc4N(CC(F)(F)F)C3=O)CC2)c(=O)[nH]1", "FALSE"),
    ("O=C(N[C@@H]1N=C(c2ccccc2)c2ccccc2N(CC(F)(F)F)C1=O)N1CCC(n2c(O)nc3c(F)cccc32)CC1", "TRUE"),
]

IN: Quick check: does O=C(N[C@@H]1N=C(c2ccccc2)c2ccccc2N(CC(F)(F)F)C1=O)N1CCC(n2cc(-c3ccc(OC(F)F)cc3)nc2O)CC1 have pKi greater than or equal to 6?
OUT: TRUE

IN: Quick check: does O=C(N[C@@H]1N=C(c2ccccc2)c2ccccc2N(CC(F)(F)F)C1=O)N1CCC(n2c(=O)[nH]c3ncccc32)CC1 have pKi greater than or equal to 6?
OUT: TRUE

###

# Lookup of reported log10 IC50 keyed by entry
target: Calcitonin gene-related peptide type 1 receptor (Homo sapiens, UniProt O60894+Q16602); experiment: Activity at CGRP receptor assessed as inhibition of CGRP-stimulated cAMP production
Please keep in mind that the values are log10 of IC50 expressed in nM.

Consider the following illustrative entries.
# structureString, log10 IC50
rows = [
    ("O=C(N[C@@H]1N=C(c2ccccc2)c2ccccc2N(CC(F)(F)F)C1=O)N1CCC(n2c(=O)[nH]c3c4ccccc4ccc32)CC1", 2.57),
    ("O=C(O)c1ccc2c(c1)[nH]c(=O)n2C1CCN(C(=O)N[C@@H]2N=C(c3ccccc3)c3ccccc3N(CC(F)(F)F)C2=O)CC1", 2.85),
    ("O=C(N[C@@H]1N=C(c2ccccc2)c2ccccc2N(CC(F)(F)F)C1=O)N1CCC(n2c(=O)[nH]c3ccncc32)CC1", 3.15),
]

Note to self: log10 IC50 recorded for COC(=O)c1cn(C2CCN(C(=O)N[C@@H]3N=C(c4ccccc4)c4ccccc4N(CC(F)(F)F)C3=O)CC2)c(=O)[nH]1 was 2.19

Note to self: log10 IC50 recorded for O=C(N[C@@H]1N=C(c2ccccc2)c2ccccc2N(CC(F)(F)F)C1=O)N1CCC(n2cc(-c3ccc(OC(F)(F)F)cc3)[nH]c2=O)CC1 was 2.63

Note to self: log10 IC50 recorded for O=C(N[C@@H]1N=C(c2ccccc2)c2ccccc2N(CC(F)(F)F)C1=O)N1CCC(n2cc(-c3ccccc3)[nH]c2=O)CC1 was 1.15

###

target: Calcitonin gene-related peptide type 1 receptor (Homo sapiens, UniProt O60894+Q16602); assay: Displacement of [125I]CGRP from human recombinant CGRP receptor
pKi: −log10 of the molar value.
pKi of 6 or higher: Met. Under 6: Not met.

Below, 5 compounds whose answers are already recorded.
# compound, assignedClass
rows = [
    ("O=C(N[C@@H]1N=C(c2ccccc2)c2ccccc2N(CC(F)(F)F)C1=O)N1CCC(n2c(O)nc3cc(Cl)ccc32)CC1", "Not met"),
    ("O=C(N[C@@H]1N=C(c2ccccc2)c2ccccc2N(CC(F)(F)F)C1=O)N1CCC(n2nc(-c3ccccc3)[nH]c2=O)CC1", "Met"),
    ("Cc1ccc(-c2cn(C3CCN(C(=O)N[C@@H]4N=C(c5ccccc5)c5ccccc5N(CC(F)(F)F)C4=O)CC3)c(=O)[nH]2)cc1", "Met"),
    ("Cc1cccc2c1nc(O)n2C1CCN(C(=O)N[C@@H]2N=C(c3ccccc3)c3ccccc3N(CC(F)(F)F)C2=O)CC1", "Not met"),
    ("O=C(N[C@@H]1N=C(c2ccccc2)c2ccccc2N(CC(F)(F)F)C1=O)N1CCC(N2CC(c3ccccn3)NC2=O)CC1 (stereo partly specified)", "Not met"),
]

IN: Quick check: does O=C(N[C@@H]1N=C(c2ccccc2)c2ccccc2N(CC(F)(F)F)C1=O)N1CCC(n2c(=O)[nH]c3cccnc32)CC1 have pKi greater than or equal to 6?
OUT: Met

IN: Quick check: does Cc1cccc2nc(O)n(C3CCN(C(=O)N[C@@H]4N=C(c5ccccc5)c5ccccc5N(CC(F)(F)F)C4=O)CC3)c12 have pKi greater than or equal to 6?
OUT: Not met

IN: Quick check: does O=C(N[C@@H]1N=C(c2ccccc2)c2ccccc2N(CC(F)(F)F)C1=O)N1CCC(n2cc(-c3ccccn3)[nH]c2=O)CC1 have pKi greater than or equal to 6?
OUT: Met

IN: Quick check: does O=C(N[C@@H]1N=C(c2ccccc2)c2ccccc2N(CC(F)(F)F)C1=O)N1CCC(n2cc[nH]c2=O)CC1 have pKi greater than or equal to 6?
OUT: Met

IN: Quick check: does O=C1CN(C2CCN(C(=O)N[C@@H]3N=C(c4ccccc4)c4ccccc4N(CC(F)(F)F)C3=O)CC2)C(=O)N1 have pKi greater than or equal to 6?
OUT: Met

IN: Quick check: does O=C(N[C@@H]1N=C(c2ccccc2)c2ccccc2N(CC(F)(F)F)C1=O)N1CCC(N2Cc3cccnc3NC2=O)CC1 have pKi greater than or equal to 6?
OUT: Met

IN: Quick check: does O=C(N[C@@H]1N=C(c2ccccc2)c2ccccc2N(CC(F)(F)F)C1=O)N1CCC(n2c(=O)[nH]c3nccnc32)CC1 have pKi greater than or equal to 6?
OUT: Met

IN: Quick check: does N#Cc1cn(C2CCN(C(=O)N[C@@H]3N=C(c4ccccc4)c4ccccc4N(CC(F)(F)F)C3=O)CC2)c(=O)[nH]1 have pKi greater than or equal to 6?
OUT: Met

IN: Quick check: does COC(=O)c1cn(C2CCN(C(=O)N[C@@H]3N=C(c4ccccc4)c4ccccc4N(CC(F)(F)F)C3=O)CC2)c(=O)[nH]1 have pKi greater than or equal to 6?
OUT: Met

IN: Quick check: does O=C(N[C@@H]1N=C(c2ccccc2)c2ccccc2N(CC(F)(F)F)C1=O)N1CCC(n2c(O)nc3cc(C(F)(F)F)ccc32)CC1 have pKi greater than or equal to 6?
OUT: Not met

IN: Quick check: does O=C(N[C@@H]1N=C(c2ccccc2)c2ccccc2N(CC(F)(F)F)C1=O)N1CCC(N2CC(c3ccccc3)NC2=O)CC1 (stereo partly specified) have pKi greater than or equal to 6?
OUT: Met

IN: Quick check: does O=C(N[C@@H]1N=C(c2ccccc2)c2ccccc2N(CC(F)(F)F)C1=O)N1CCC(n2c(=O)[nH]c3ccccc32)CC1 have pKi greater than or equal to 6?
OUT: Not met

IN: Quick check: does O=C(N[C@@H]1N=C(c2ccccc2)c2ccccc2N(CC(F)(F)F)C1=O)N1CCC(n2c(=O)[nH]c3c4ccccc4ccc32)CC1 have pKi greater than or equal to 6?
OUT: Met

All figures here come from ChEMBL document CHEMBL1149493.
